test system: PC-14; test: relative viability (nuclei count vs DMSO), 5 days (fraction); higher = more cells survive; conditions: first compound 0.1581 µM
MEASUREMENT_KIND: relative viability

Worked examples, 3 molecules total:
{"MOLECULE": "Nc1ccn([C@@H]2O[C@H](CO)[C@@H](O)[C@@H]2O)c(=O)n1 [Cytarabine] + N=C(N)NC(=N)NCCc1ccccc1 [Phenformin] (partner 250 µM)", "VALUE": 0.0817}
{"MOLECULE": "COc1cc2nccc(Oc3ccc(NC(=O)Nc4cc(C)on4)c(Cl)c3)c2cc1OC [Tivozanib] + COc1cc2c(Oc3ccc(NC(=O)C4(C(=O)Nc5ccc(F)cc5)CC4)cc3F)ccnc2cc1OCCCN1CCOCC1 [Foretinib] (partner 0.25 µM)", "VALUE": 1.09}
{"MOLECULE": "Nc1ccn([C@@H]2O[C@H](CO)[C@@H](O)[C@@H]2O)c(=O)n1 [Cytarabine] + Cc1cc(Nc2cc(N3CCN(C)CC3)nc(Sc3ccc(NC(=O)C4CC4)cc3)n2)n[nH]1 [Tozasertib] (partner 0.1 µM)", "VALUE": 0.157}

# evaluate next
Exercise: Fill in: relative viability of COc1cc2nccc(Oc3ccc(NC(=O)Nc4cc(C)on4)c(Cl)c3)c2cc1OC [Tivozanib] + COc1cccc2cc(-c3nc([C@H]4CC[C@H](C(=O)O)CC4)n4ncnc(N)c34)[nH]c12 [OSI-027] (partner 0.5 µM) is ___
Solution: 0.664
